Here the recorded IC50, down regulation of 3 nM IGF-1 stimulation to basal level, MAPK42, L6 cells is given for each entry.
- Tgt: IGF-1R on L6 cells
- Assay details: cell-based or functional assay
The reply should be a number in nM, with the unit left off.

Examples with their reported IC50, down regulation of 3 nM IGF-1 stimulation to basal level, MAPK42, L6 cells follow.
INSERT INTO assay_data (binder, endpoint_unit, result) VALUES
  ('SFYSCLESLVKRPTERSRGQWVGCR [F320]', 'nM', 1000),
  ('DFYGCLLDLSLGVPSLGWRRRCITA [F429]', 'nM', 300),
  ('SFYSCLESLVQGPAEKSRGQWEGCRK [F293]', 'nM', 1000);

Continue with the next binder.
Input line: Please give the documented IC50, down regulation of 3 nM IGF-1 stimulation to basal level, MAPK42, L6 cells of QFYGCLLDLSLGVPSFGWRRRCITA [F138]
Output line: 300
